Assay: xn = mol fraction of the nth substance listed, in the solute-free solvent
Conditions: 313.15 K; x2 = 0.9
Give measured solubility (g/100 g solution) for each item. Keep answers brief.
Please state the value as a number alone, without comment.

// O=C(O)c1ccc(C(=O)O)o1 + C1COCCO1 + O : solubility (g/100 g solution) value = 1.54

// CCCCOc1ccc(C(=O)CCN2CCCCC2)cc1.Cl + CCO + CCOC(C)=O : solubility (g/100 g solution) value = 48.8

// O=C(O)c1ccc(C(=O)O)o1 + C1CCOC1 + O : solubility (g/100 g solution) value = 4.16

// COC1=CC(=O)CC(C)C12Oc1c(Cl)c(OC)cc(OC)c1C2=O (stereo not drawn) + CCC(C)=O + CC(C)O : solubility (g/100 g solution) value = 3.52

// CCCCOc1ccc(C(=O)CCN2CCCCC2)cc1.Cl + CCO + O : solubility (g/100 g solution) value = 53.6

// O=C1CCc2ccc(OCCCCN3CCN(c4cccc(Cl)c4Cl)CC3)cc2N1 + CCC(C)=O + CC(C)=O : solubility (g/100 g solution) value = 4.35

// CCCCOc1ccc(C(=O)CCN2CCCCC2)cc1.Cl + CO + C1CCOC1 : solubility (g/100 g solution) value = 64.9

// COC1=CC(=O)CC(C)C12Oc1c(Cl)c(OC)cc(OC)c1C2=O (stereo not drawn) + CC(C)=O + CC(C)O : solubility (g/100 g solution) value = 4.68

// O=C(O)c1ccc(C(=O)O)o1 + O + COCCOC : solubility (g/100 g solution) value = 4.74

// CC(=O)OC(c1ccccc1)C(Cl)(Cl)Cl (stereo not drawn) + CCO + O : solubility (g/100 g solution) value = 11.8

// O=C(O)c1ccc(C(=O)O)o1 + O + COCCOCCOC : solubility (g/100 g solution) value = 4.05

// O=C1CCc2ccc(OCCCCN3CCN(c4cccc(Cl)c4Cl)CC3)cc2N1 + CCC(C)=O + CCOC(C)=O : solubility (g/100 g solution) value = 4.12

// COC1=CC(=O)CC(C)C12Oc1c(Cl)c(OC)cc(OC)c1C2=O (stereo not drawn) + CC(=O)CC(C)C + CC(C)O : solubility (g/100 g solution) value = 1.35

// CC(=O)OC(c1ccccc1)C(Cl)(Cl)Cl (stereo not drawn) + CC(=O)O + O : solubility (g/100 g solution) value = 21.2

// O=C(O)C1CSCN1 (stereo not drawn) + O + CC#N : solubility (g/100 g solution) value = 3.06

// CC(=O)OC(c1ccccc1)C(Cl)(Cl)Cl (stereo not drawn) + CC(C)O + O : solubility (g/100 g solution) value = 10.9

// O=C1CCc2ccc(OCCCCN3CCN(c4cccc(Cl)c4Cl)CC3)cc2N1 + CCC(C)=O + CCCO : solubility (g/100 g solution) value = 5.13

// CCCCOc1ccc(C(=O)CCN2CCCCC2)cc1.Cl + CCO + CCCCCC : solubility (g/100 g solution) value = 48.3
